Read-out: Interferon-gamma inducible Protein 10 (IP10), CXCL10 (gene 3627)
Experiment: BSK_KF3CT_IP10: BioMAP Diversity Plus: KF3CT Assay for Interferon-gamma inducible Protein 10 (IP10) Biomarker Activity (AID 2283068)
Settings: primary human keratinocytes with fibroblasts; actives raise or lower the signal
Active and inactive are the calls of the source. Rule for the calls: active = hit-call score of the fitted dose curve at least 0.9, where 1 is the maximum; inactive = score below 0.9.
Respond only with the outcome that fits, drawn from TRUE (active), FALSE (inactive)

**Q:** State the result this test recorded for "C=CC/C=C/C/C=C/C/C=C/C" .
**A:** FALSE

**Q:** State the result this test recorded for "Oc1ccc(Nc2ccccc2)cc1" .
**A:** FALSE

**Q:** State the result this test recorded for "O[Si](c1ccccc1)(c1ccccc1)c1ccccc1" .
**A:** FALSE

**Q:** State the result this test recorded for "O=C(O)C(F)(F)C(F)(F)C(F)(F)F" .
**A:** FALSE

**Q:** State the result this test recorded for "FC(F)(F)C(F)(F)C(F)(F)C(F)(F)C(F)(F)C(F)(F)C(F)(F)C(F)(F)F" .
**A:** FALSE

**Q:** State the result this test recorded for "CCc1ccc(C(c2ccc(CC)cc2)C(Cl)Cl)cc1" .
**A:** TRUE

**Q:** State the result this test recorded for "Nc1ccc([N+](=O)[O-])cc1O" .
**A:** FALSE

**Q:** State the result this test recorded for "O=S(=O)(OCCOC(F)(F)F)C(F)(F)F" .
**A:** FALSE

**Q:** State the result this test recorded for "C=C(C)C(=O)OCC(F)(F)C(F)(F)C(F)(F)F" .
**A:** FALSE

**Q:** State the result this test recorded for "OCC(F)(F)C(F)(F)C(F)(F)C(F)(F)C(F)(F)C(F)F" .
**A:** FALSE

**Q:** State the result this test recorded for "NC(=O)C(F)(F)C(F)(F)C(F)(F)C(F)(F)F" .
**A:** FALSE

**Q:** State the result this test recorded for "C=C(C)C(=O)OCCC(F)(F)C(F)(F)C(F)(F)C(F)(F)C(F)(C(F)(F)F)C(F)(F)F" .
**A:** FALSE

**Q:** State the result this test recorded for "FC(F)(F)C(F)(F)C(F)(F)N(C(F)(F)C(F)(F)C(F)(F)F)C(F)(F)C(F)(F)C(F)(F)F" .
**A:** FALSE

**Q:** State the result this test recorded for "FC(F)(F)C(F)(F)C(F)(F)C(F)(F)C(F)(F)C(F)(F)C(F)(F)I" .
**A:** FALSE

**Q:** State the result this test recorded for "C=CC(F)(F)C(F)(F)C(F)(F)C(F)(F)C(F)(F)C(F)(F)C(F)(F)C(F)(F)C=C" .
**A:** FALSE

**Q:** State the result this test recorded for "OCC(F)(F)C(F)(F)C(F)(F)F" .
**A:** FALSE

**Q:** State the result this test recorded for "FC(F)(F)C(F)(F)CNCC(F)(F)C(F)(F)F" .
**A:** FALSE

**Q:** State the result this test recorded for "FC(F)(F)C(F)(F)C(F)(F)C(F)(F)C(F)(F)CCI" .
**A:** FALSE

**Q:** State the result this test recorded for "O=S(=O)(OCC(F)F)C(F)(F)F" .
**A:** FALSE

**Q:** State the result this test recorded for "O=C(O)C(F)(F)C(F)(F)C(F)F" .
**A:** FALSE

**Q:** State the result this test recorded for "CCc1c(Br)c(Br)c(Br)c(Br)c1Br" .
**A:** FALSE

**Q:** State the result this test recorded for "C=C(C)C(=O)OCC(F)(F)C(F)(F)C(F)(F)C(F)(F)C(F)(F)C(F)(F)C(F)(F)F" .
**A:** FALSE

**Q:** State the result this test recorded for "FC(F)(F)C(F)(F)C(F)(F)C(F)(F)C(F)(F)C(F)(F)C(F)(F)Br" .
**A:** FALSE

**Q:** State the result this test recorded for O=C(O)C(F)(OC(F)(F)C(F)(OC(F)(F)C(F)(OC(F)(F)C(F)(F)C(F)(F)F)C(F)(F)F)C(F)(F)F)C(F)(F)F (stereo not drawn) .
**A:** FALSE

**Q:** State the result this test recorded for "CCCCCCCOC(=O)c1ccccc1C(=O)OCCCCCCC" .
**A:** FALSE

**Q:** State the result this test recorded for O=C(O)C(F)(OC(F)(F)C(F)(OC(F)(F)C(F)(F)C(F)(F)F)C(F)(F)F)C(F)(F)F (stereo not drawn) .
**A:** FALSE

**Q:** State the result this test recorded for "N=C(N)C(F)(F)C(F)(F)C(F)(F)C(F)(F)C(F)(F)C(F)(F)C(F)(F)F" .
**A:** FALSE

**Q:** State the result this test recorded for "O=C(O)C(F)(F)C(F)(F)C(F)(F)C(F)(F)C(F)(F)C(F)(F)C(F)(F)C(F)(F)C(F)(F)C(F)(F)C(F)(F)C(F)(F)C(F)(F)F" .
**A:** FALSE

**Q:** State the result this test recorded for "OCCCC(F)(F)C(F)(F)C(F)(F)F" .
**A:** FALSE

**Q:** State the result this test recorded for "FC(F)(F)C(F)(F)C(F)(F)C(F)(F)CCI" .
**A:** FALSE

**Q:** State the result this test recorded for "CS(C)(=O)=O" .
**A:** FALSE

**Q:** State the result this test recorded for "O=C(O)C(F)(F)C(F)(F)C(F)(F)C(F)(F)F" .
**A:** FALSE

**Q:** State the result this test recorded for "FC(F)(Br)C(F)(F)C(F)(F)C(F)(F)C(F)(F)C(F)(F)Br" .
**A:** FALSE

---

Experiment: ATG_TA_CIS: Attagene CIS-FACTORIAL HepG2 Assay for human TA Basal Promoter (AID 2282964)
Details: HepG2 Attagene CIS-factorial TA basal promoter reporter; actives raise or lower the signal
Protocol: ATG_CIS is a cell-based, multiplexed-readout assay that uses HepG2, a human liver cell line, with measurements taken at 24 hours after chemical dosing in a 24-well plate.ATG_TA_CIS is one of 52 assay component(s) measured or calculated from the ATG_CIS assay. […] This assay endpoint, ATG_TA_CIS, was analyzed with bidirectional fitting relative to DMSO as the negative control and baseline of activity. […]
Active and inactive are the calls of the source. Rule for the calls: active = hit-call score of the fitted dose curve at least 0.9, where 1 is the maximum; inactive = score below 0.9.
Respond only with the outcome that fits, drawn from yes (1) = active, no (0) = inactive

**Q:** State the result this test recorded for "NC(=O)C(F)(F)C(F)(F)C(F)(F)C(F)(F)F" .
**A:** no (0)

**Q:** State the result this test recorded for "CCCCCCOC(=O)c1ccccc1O" .
**A:** no (0)

**Q:** State the result this test recorded for "FC(F)(F)C(F)(F)C(F)(F)C(F)(F)C(F)(F)CCI" .
**A:** no (0)

**Q:** State the result this test recorded for "OCC(F)(F)C(F)(F)C(F)(F)F" .
**A:** no (0)

**Q:** State the result this test recorded for "C=CC(F)(F)C(F)(F)C(F)(F)C(F)(F)C(F)(F)C(F)(F)C(F)(F)C(F)(F)C=C" .
**A:** no (0)

**Q:** State the result this test recorded for "FC(F)(F)C(F)(F)C(F)(F)C(F)(F)CCI" .
**A:** no (0)

**Q:** State the result this test recorded for O=C(O)C(F)(OC(F)(F)C(F)(OC(F)(F)C(F)(OC(F)(F)C(F)(F)C(F)(F)F)C(F)(F)F)C(F)(F)F)C(F)(F)F (stereo not drawn) .
**A:** no (0)

**Q:** State the result this test recorded for "CC/C=C\CCOC(=O)c1ccccc1" .
**A:** no (0)

**Q:** State the result this test recorded for "C1COCCN1" .
**A:** no (0)

**Q:** State the result this test recorded for "Cc1cc(C)cc(O)c1" .
**A:** no (0)

**Q:** State the result this test recorded for "O=C(OCCOCCOCCOC(=O)c1ccccc1)c1ccccc1" .
**A:** no (0)

**Q:** State the result this test recorded for "CC/C=C\CCOC(C)=O" .
**A:** no (0)

**Q:** State the result this test recorded for "FC(F)(F)C(F)(F)C(F)(F)C(F)(F)C(F)(F)C(F)(F)C(F)(F)C(F)(F)F" .
**A:** no (0)

**Q:** State the result this test recorded for "OCC(F)(F)C(F)(F)C(F)(F)C(F)(F)C(F)(F)C(F)F" .
**A:** no (0)

**Q:** State the result this test recorded for "O=C(O)C(F)(F)C(F)(F)C(F)F" .
**A:** no (0)

**Q:** State the result this test recorded for "FC(F)(Br)C(F)(F)C(F)(F)C(F)(F)C(F)(F)C(F)(F)Br" .
**A:** no (0)

**Q:** State the result this test recorded for "Nc1ccc([N+](=O)[O-])cc1O" .
**A:** no (0)

**Q:** State the result this test recorded for CC(C)=CCCC(C)CCOC(=O)C(C)C (stereo not drawn) .
**A:** no (0)

**Q:** State the result this test recorded for "FC(F)(F)C(F)(F)C(F)(F)C(F)(F)C(F)(F)C(F)(F)C(F)(F)Br" .
**A:** no (0)

**Q:** State the result this test recorded for "FC(F)(F)C(F)(F)C(F)(F)C(F)(F)C(F)(F)C(F)(F)C(F)(F)C(F)(F)CCS" .
**A:** no (0)

**Q:** State the result this test recorded for "OCCCC(F)(F)C(F)(F)C(F)(F)C(F)(F)C(F)(F)C(F)(F)C(F)(F)F" .
**A:** no (0)

**Q:** State the result this test recorded for "N=C(N)C(F)(F)C(F)(F)C(F)(F)C(F)(F)C(F)(F)C(F)(F)C(F)(F)F" .
**A:** no (0)

**Q:** State the result this test recorded for "CCN(CC)c1ccc2c(C)cc(=O)oc2c1" .
**A:** no (0)

**Q:** State the result this test recorded for "Nc1ccc(Oc2cccc(Oc3ccc(N)cc3)c2)cc1" .
**A:** yes (1)

**Q:** State the result this test recorded for "CN(C)Cc1ccccc1O" .
**A:** yes (1)

**Q:** State the result this test recorded for "CNC(=S)NC" .
**A:** no (0)

**Q:** State the result this test recorded for "CCc1c(Br)c(Br)c(Br)c(Br)c1Br" .
**A:** no (0)

**Q:** State the result this test recorded for "FC(F)(F)C(F)(F)C(F)(F)N(C(F)(F)C(F)(F)C(F)(F)F)C(F)(F)C(F)(F)C(F)(F)F" .
**A:** no (0)

**Q:** State the result this test recorded for CC(Cc1ccc(O)c(O)c1)C(C)Cc1ccc(O)c(O)c1 (stereo not drawn) .
**A:** yes (1)

**Q:** State the result this test recorded for "O=S(=O)(O)c1ccc2ccccc2c1" .
**A:** no (0)

**Q:** State the result this test recorded for "O=C(O)C(F)(F)C(F)(F)C(F)(F)C(F)(F)C(F)(F)C(F)(F)C(F)(F)C(F)(F)C(F)(F)C(F)F" .
**A:** no (0)

**Q:** State the result this test recorded for "C(=C(c1ccccc1)c1ccccc1)c1ccccc1" .
**A:** no (0)

**Q:** State the result this test recorded for "OCCCC(F)(F)C(F)(F)C(F)(F)F" .
**A:** no (0)

**Q:** State the result this test recorded for "CCCCCCOC(=O)c1ccccc1" .
**A:** no (0)

**Q:** State the result this test recorded for "CCCCOc1ccc(N)cc1" .
**A:** no (0)

**Q:** State the result this test recorded for "Oc1ccc(Nc2ccccc2)cc1" .
**A:** yes (1)

**Q:** State the result this test recorded for "C=CC(=O)OCC(F)(F)C(F)(F)C(F)(F)C(F)(F)C(F)(F)C(F)(F)C(F)(F)F" .
**A:** no (0)

**Q:** State the result this test recorded for COC(=O)C1CCC(C(=O)OC)CC1 (stereo not drawn) .
**A:** no (0)

**Q:** State the result this test recorded for "O=C(C=Cc1ccccc1)OCC=Cc1ccccc1" .
**A:** no (0)

**Q:** State the result this test recorded for "O=P(O)(O)OCCC(F)(F)C(F)(F)C(F)(F)C(F)(F)C(F)(F)C(F)(F)F" .
**A:** no (0)

**Q:** State the result this test recorded for "FC(F)(F)C(F)(F)C(F)(F)C(F)(F)C(F)(F)C(F)(F)CCS" .
**A:** no (0)

**Q:** State the result this test recorded for "C=C(C)C(=O)OCCC(F)(F)C(F)(F)C(F)(F)C(F)(F)C(F)(C(F)(F)F)C(F)(F)F" .
**A:** no (0)

**Q:** State the result this test recorded for O=C(O)C(F)(OC(F)(F)C(F)(OC(F)(F)C(F)(F)C(F)(F)F)C(F)(F)F)C(F)(F)F (stereo not drawn) .
**A:** no (0)

**Q:** State the result this test recorded for "O[Si](c1ccccc1)(c1ccccc1)c1ccccc1" .
**A:** no (0)

**Q:** State the result this test recorded for "FC(F)(F)C(F)(F)CNCC(F)(F)C(F)(F)F" .
**A:** no (0)

**Q:** State the result this test recorded for "CO[Si](OC)(c1ccccc1)c1ccccc1" .
**A:** no (0)

**Q:** State the result this test recorded for "O=C(O)C(F)(F)C(F)(F)C(F)(F)C(F)(F)C(F)(F)C(F)(F)C(F)(F)C(F)(F)C(F)(F)C(F)(F)C(F)(F)C(F)(F)C(F)(F)F" .
**A:** no (0)

**Q:** State the result this test recorded for "O=C(O)C(F)(F)C(F)(F)C(F)(F)C(F)(F)F" .
**A:** no (0)
